Assign Ratio CC50/IC50 to each entry below.
Experiment: Selectivity index, ratio of CC50 for mouse J774A1 cells to IC50 for Leishmania major MHOM/IL/81/BNI promastigotes
Type: functional, J774.A1
I'd appreciate a reply containing only the number, no unit.

Q) Look up Ratio CC50/IC50 for this compound: C/C=C/C=C/c1nc2ccc(OC)cc2n2cccc12
A) 2

Q) Quick one: C/C=C/C=C/c1nc2cc(OC)ccc2n2cccc12
A) 0.8

Q) Quick one: N=C(N)c1ccc(OCCCCCOc2ccc(C(=N)N)cc2)cc1 [PENTAMIDINE]
A) 0.1

Q) Quick one: C/C=C/C=C/c1nc2cccc(OC)c2n2cccc12
A) 0.8

Q) Quick one: CCCC/C=C/C=C/c1nc2cc(OC)ccc2n2cccc12
A) 3.2

Q) Quick one: CCCC/C=C/C=C/c1nc2cccc(OC)c2n2cccc12
A) 1.1

Q) Quick one: C/C=C/C=C/C=C/c1nc2ccccc2n2cccc12
A) 4.1

Q) Quick one: CCC/C=C/C=C/c1nc2ccccc2n2cccc12
A) 1.2

Q) Quick one: CCCC/C=C/C=C/c1nc2ccc(OC)cc2n2cccc12
A) 2.3
